- test.system: T1, pepN48 (peptide of the 48 N-terminal extracellular amino acids of human CXCR2) (human, biotin labeled on its N-terminus (panning, ELISA, SPR))
- T1 construct: Synthetic; also called N-terminus of CXCR2
- T1 peptide: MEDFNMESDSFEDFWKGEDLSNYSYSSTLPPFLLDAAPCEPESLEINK
- assay.info: SPR, Biacore T200; biotinylated pepN48 on SA chip;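 also: antibodies flowed in HBS-EP+ running buffer over the immobilized antigen at 0.5 to 10 nM, kinetic traces fitted to a protein-protein interaction model to derive constants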
Please respond with reported koff for every item in the list.
Numbers only, in s⁻¹.

abN48-6 (antibody, V domains shown, format as tested not clearly stated) VH: QVQLVQSGAEVKKPGSSVKVSCKASGGTLSSYAISWVRQAPGQGPEWMGWINPNSGGTNYAQKFQGRVTMTRDTSISTAYMELSRLRPDDTAVYYCASGYCSPSGCYVYWGQGTLVTVSS VL: QAVLTQPSSLSASPGASVSLTCTLRSGINVGAYRIYWYQQKPGSPPQFLLRYKSDSDKQQGSGVPSRFSGSRDASANAGILLISGLRSEDEADYYCAIWHSSAWVFGGGTQLTVLG
1.8e-05
abN48-1 (antibody, V domains shown, Format as tested not clearly stated (sub-cloned to pFuse vector, expressed in HEK293T)) VH: QVQLVQSGAEVKKPGSSVKVSCKASGGTLSSYAISWVRQAPGQGPEWMGWINPNSGGTNYAQKFQGRVTMTRDTSISTAYMELSRLRPDDTAVYYCASGFCTRTICFVYWGQGTLVTVSS VL: QAVLTQPSSLSASPGASVSLTCTLRSGINVGAYRIYWYQQKPGSPPQFLLRYKSDSDKQQGSGVPSRFSGSRDASANAGILLISGLRSEDEADYYCAIWHSSAWVFGGGTQLTVLG
6.4e-05

For each of the binders below, note its koff.
1. abN48-4 (antibody, V domains shown, format as tested not clearly stated) VH: QVQLVQSGAEVKKPGSSVKVSCKASGGTLSSYAISWVRQAPGQGPEWMGWINPNSGGTNYAQKFQGRVTMTRDTSISTAYMELSRLRPDDTAVYYCASGYCNRTRCYDHWGQGTLVTVSS VL: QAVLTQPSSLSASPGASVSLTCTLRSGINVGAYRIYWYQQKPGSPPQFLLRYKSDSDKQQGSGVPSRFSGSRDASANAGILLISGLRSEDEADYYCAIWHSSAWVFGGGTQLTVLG
2. abN48-3 (antibody, V domains shown, format as tested not clearly stated) VH: QVQLVQSGAEVKKPGSSVKVSCKASGGTLSSYAISWVRQAPGQGPEWMGWINPNSGGTNYAQKFQGRVTMTRDTSISTAYMELSRLRPDDTAVYYCASGYCSFAICFDSWGQGTLVTVSS VL: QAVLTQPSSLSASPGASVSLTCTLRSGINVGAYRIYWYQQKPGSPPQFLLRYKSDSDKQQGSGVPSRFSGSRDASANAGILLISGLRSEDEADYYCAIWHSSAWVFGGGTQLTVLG

stdout:
1: 1.6e-05; 2: 0.00016

stdin: I have this binder here, abN48-8 (antibody, V domains shown, format as tested not clearly stated) VH: QVQLVQSGAEVKKPGSSVKVSCKASGGTLSSYAISWVRQAPGQGPEWMGWINPNSGGTNYAQKFQGRVTMTRDTSISTAYMELSRLRPDDTAVYYCASGYCSRSRCYDYWGQGTLVTVSS VL: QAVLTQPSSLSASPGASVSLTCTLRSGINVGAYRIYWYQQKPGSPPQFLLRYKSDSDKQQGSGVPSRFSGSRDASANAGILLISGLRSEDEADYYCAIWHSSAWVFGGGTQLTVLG , and I need its recorded koff.
stdout: 2e-05
